method summary: Resistance index, ratio of IC50 for asexual erythrocyte stage of chloroquine-resistant Plasmodium falciparum Dd2 infected in human red blood cells to IC50 for asexual erythrocyte stage of chloroquine-sensitive Plasmodium falciparum NF54 infected in human red blood cells
Assay type: functional
readout kind: Ratio IC50
API note: the answer field is a bare number with no unit suffix.

Q: Give the measured Ratio IC50 of O=C(Nc1ccc(-c2nc3ccccc3[nH]2)cc1)c1cc(Cl)nc(Cl)c1 .
A: 0.64

Q: Give the measured Ratio IC50 of O=C(Nc1ccc(-c2nc3ccccc3[nH]2)cc1)c1cncc(C(F)(F)F)c1 .
A: 1.4

Q: Give the measured Ratio IC50 of O=C(Nc1ccc(-c2nc3ccccc3[nH]2)cc1)c1cc([N+](=O)[O-])cc([N+](=O)[O-])c1 .
A: 0.46

Q: Give the measured Ratio IC50 of O=C(Nc1ccc(-c2nc3ccccc3[nH]2)cc1)c1cncc(Br)c1 .
A: 2.4

* * *

method summary: Selectivity index, ratio of IC50 for CHO cells to IC50 for asexual erythrocyte stage of chloroquine-sensitive Plasmodium falciparum NF54 infected in human red blood cells
Format: toxicity, cell-based
conditions: Chinese hamster, read-out: Ratio IC50
readout kind: selectivity ratio
API note: the answer field is a bare number with no unit suffix.

Q: Give the measured selectivity ratio of O=C(Nc1ccc(-c2nc3ccccc3[nH]2)cc1)c1cncc(Br)c1 .
A: 461

Q: Give the measured selectivity ratio of O=C(Nc1ccc(-c2nc3ccccc3[nH]2)cc1)c1cncc(C(F)(F)F)c1 .
A: 44

Q: Give the measured selectivity ratio of O=C(Nc1ccc(-c2nc3ccccc3[nH]2)cc1)c1cc([N+](=O)[O-])cc([N+](=O)[O-])c1 .
A: 308

Q: Give the measured selectivity ratio of O=C(Nc1ccc(-c2nc3ccccc3[nH]2)cc1)c1cc(Cl)nc(Cl)c1 .
A: 347

* * *

method summary: Inhibition of beta hematin formation after 5 to 6 hrs by NP40 detergent-based assay
readout kind: pIC50
Scale: pIC50 equals -log10([C]), with [C] in mol/L.

Q: Give the measured pIC50 of O=C(Nc1ccc(-c2nc3ccccc3[nH]2)cc1)c1cc(Cl)nc(Cl)c1 .
A: 4.77

Q: Give the measured pIC50 of CC(C)(C)c1ccc(C(=O)Nc2ccc(-c3nc4ccccc4[nH]3)cc2)cc1 .
A: 3.45

Q: Give the measured pIC50 of O=C(Nc1ccc(-c2nc3ccccc3[nH]2)cc1)c1ccc(Cl)cc1Cl .
A: 4.05

Q: Give the measured pIC50 of O=C(Nc1ccc(-c2nc3ccccc3[nH]2)cc1)c1cccnc1 .
A: 4.45

Q: Give the measured pIC50 of O=C(Nc1ccc(-c2nc3ccccc3[nH]2)cc1)c1ccccc1[N+](=O)[O-] .
A: 4.54

Q: Give the measured pIC50 of O=C(Nc1ccc(-c2nc3ccccc3[nH]2)cc1)c1cccc(Cl)c1 .
A: 4.60

Q: Give the measured pIC50 of O=C(Nc1ccc(-c2nc3ccccc3[nH]2)cc1)c1cncc(C(F)(F)F)c1 .
A: 4.78

Q: Give the measured pIC50 of O=C(Nc1ccc(-c2nc3ccccc3[nH]2)cc1)c1cncc(Br)c1 .
A: 4.49

Q: Give the measured pIC50 of O=C(Nc1ccc(-c2nc3ccccc3[nH]2)cc1)c1cccs1 .
A: 4.37

Q: Give the measured pIC50 of O=C(Nc1ccc(-c2nc3ccccc3[nH]2)cc1)c1ccco1 .
A: 4.08

Q: Give the measured pIC50 of O=C(Nc1ccc(-c2nc3ccccc3[nH]2)cc1)c1ccc[nH]1 .
A: 4.33

Q: Give the measured pIC50 of O=C(Nc1ccc(-c2nc3ccccc3[nH]2)cc1)c1ccccc1 .
A: 2.41

Q: Give the measured pIC50 of O=C(Nc1ccc(-c2nc3ccccc3[nH]2)cc1)c1ccccc1Cl .
A: 4.42

Q: Give the measured pIC50 of O=C(Nc1ccc(-c2nc3ccccc3[nH]2)cc1)c1cccc(C(F)(F)F)c1 .
A: 4.55

Q: Give the measured pIC50 of O=C(Nc1ccc(-c2nc3ccccc3[nH]2)cc1)c1ccc(Cl)cc1 .
A: 2.75

Q: Give the measured pIC50 of O=C(Nc1ccc(-c2nc3ccccc3[nH]2)cc1)c1cc([N+](=O)[O-])cc([N+](=O)[O-])c1 .
A: 4.88

Q: Give the measured pIC50 of COc1ccccc1C(=O)Nc1ccc(-c2nc3ccccc3[nH]2)cc1 .
A: 4.41

Q: Give the measured pIC50 of O=C(Nc1ccc(-c2nc3ccccc3[nH]2)cc1)c1cccc(Br)c1 .
A: 4.61
